Tested on: Nakaseomyces glabratus
Assay: Antimicrobial activity against Candida glabrata ATCC 1182
Format: functional
Positions of bridges follow the written chain, without caps; N, C: chain ends. Non-standard residues stand in square brackets, D forms with d. Residues, ends and D or L forms follow the SMILES beside them. S5 = C=CCCC[C@](C)(N)C(=O)O
# MIC per record follows

compound	assayed_target	test_readout	result
CC[C@H](C)[C@@H]1NC(=O)[C@H](CCCCN)NC(=O)[C@@](C)(NC(=O)[C@@H](NC(=O)[C@@H](NC(=O)[C@H](CC(=O)O)NC(=O)[C@H](Cc2ccccc2)NC(=O)[C@H](CC(C)C)NC(=O)CN)[C@@H](C)CC)[C@@H](C)CC)CCC/C=C\CCC[C@@](C)(C(=O)N[C@@H](CO)C(=O)N[C@@H](Cc2ccccc2)C(N)=O)NC(=O)[C@H](C)NC1=O (H-GLFDII[S5]KIA[S5]SF-NH2; staple (Z) 7-11)	Nakaseomyces glabratus	MIC	> 128 µg/mL

Query block: Which MIC reading was recorded for the compound CC[C@H](C)[C@@H]1NC(=O)[C@@](C)(NC(=O)[C@H](CC(=O)O)NC(=O)[C@H](Cc2ccccc2)NC(=O)[C@H](CC(C)C)NC(=O)CNC(C)=O)CCC/C=C\CCC[C@@](C)(C(=O)N[C@@H](C)C(=O)N[C@@H](CCC(=O)O)C(=O)N[C@@H](CO)C(=O)N[C@@H](Cc2ccccc2)C(N)=O)NC(=O)[C@H](CCCCN)NC(=O)[C@H](CCCCN)NC1=O (Ac-GLFD[S5]IKK[S5]AESF-NH2; staple (Z) 5-9) ?
Result block: > 128 µg/mL
